Values from patent US10940139B2

Catalogue of inhibition at 20 µM values
- target: KRas G12D/Q61H double mutant (Homo sapiens (Human), UniProt P01116, G12D/Q61H)
- Sequence (P01116-2 other isoform, or with tags, fused parts or gaps G12D/Q61H): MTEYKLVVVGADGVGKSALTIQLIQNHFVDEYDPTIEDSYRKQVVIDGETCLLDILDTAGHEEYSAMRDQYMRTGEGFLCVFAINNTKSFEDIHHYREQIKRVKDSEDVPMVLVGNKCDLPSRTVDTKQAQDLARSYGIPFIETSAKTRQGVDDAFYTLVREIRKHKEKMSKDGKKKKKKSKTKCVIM
- assay_remarks: Ras GTP binding domain inhibition assay (labeled GTP)
- assay_context: 20 μM compound; KRas G12D/Q61H double mutant; read-out: % Inhibition at 20 μM of K-Ras mutant and wild-type protein, KRas G12D Q61H
readout_label: inhibition at 20 µM

1. CC(NC(=O)C1CSC(c2ccccc2)=N1)c1ccccn1 (centres unmarked) = 1 to 25%
2. COc1ccc(COC[C@H]2O[C@@H](c3csc4c(=O)[nH]c(-c5ccccn5)nc34)[C@H](O)[C@@H]2O)cc1 [drawing 3533] = 25 to 50%
3. CCCCN1CC(c2nc3ccccc3n2CCCCOc2c(C)cccc2C)CC1=O (centres unmarked) = 1 to 25%
4. CC(=O)c1c(F)cccc1N1CCN(c2cccc(C(F)(F)F)c2)CC1 = 25 to 50%
5. O=C(Cc1ccccc1[N+](=O)[O-])N1CCCC1C1CCCC1 (centres unmarked) = 1 to 25%

---

Catalogue of inhibition at 20 µM values
- target: KRas G12D/Q61H double mutant (Homo sapiens (Human), UniProt P01116, G12D/Q61H)
- assay_remarks: Ras GTP binding domain inhibition assay (labeled GTP)
- assay_context: 20 μM; read-out: KRas G12D Q61H % Inh.
readout_label: inhibition at 20 µM

1. O=C(Nc1nnc(-c2ccccn2)[nH]1)C1CCN(C(=O)c2cccs2)CC1 [drawing 2556] = 51 to 75%
2. Cn1cc(C2CC2C(=O)Nc2nnc(-c3ccccn3)[nH]2)cn1 (stereo not drawn) [drawing 2457] = 51 to 75%
3. COc1ccc(CCC(=O)N2CCCc3c(O)nc(-c4ccccn4)nc32)cc1 [drawing 2640] = 51 to 75%
4. CC1CCc2sc(C(=O)Nc3nnc(-c4ccccn4)[nH]3)cc2C1 (stereo not drawn) [drawing 2531] = 51 to 75%
5. O=C(Nc1nnc(-c2ccccn2)[nH]1)C1CC1c1ccc(F)cc1 (stereo not drawn) [drawing 2520] = 51 to 75%
6. Cc1ccc(-c2ccc(Oc3ccc(C(F)(F)F)cn3)c(C)c2)cc1 [drawing 2621] = 51 to 75%
7. COc1cccc(CCC(=O)Nc2nnc(-c3ccccn3)[nH]2)c1 [drawing 2453] = 51 to 75%
8. N#Cc1cccc(OCC(=O)Nc2nnc(-c3ccccn3)[nH]2)c1 [drawing 2523] = 51 to 75%
9. CC(Oc1ccc(C#N)cc1)C(=O)Nc1nnc(-c2ccccn2)[nH]1 (stereo not drawn) [drawing 2525] = 51 to 75%
10. CC(C)N(Cc1nnc(-c2ccc(Cl)cc2Cl)o1)c1ccc(F)cc1 = 25 to 50%
11. O=C(Nc1nnc(-c2ccccn2)[nH]1)c1ccc2c(c1)CCO2 [drawing 2455] = 51 to 75%
12. CC(COCc1ccccc1)C(=O)Nc1nnc(-c2ccccn2)[nH]1 (stereo not drawn) [drawing 2517] = 51 to 75%
13. COc1ccc(COCC(=O)Nc2nnc(-c3ccccn3)[nH]2)cc1 [drawing 2563] = 51 to 75%
14. O=C(COc1ccccc1)Nc1nnc(-c2ccccn2)[nH]1 [drawing 2545] = 51 to 75%
15. CN(CC(=O)N1CCCc2c(O)nc(-c3ccccn3)nc21)S(=O)(=O)c1ccccc1 [drawing 2641] = 1 to 25%
16. Cc1ccc(O)c(CN(C)Cc2nccn2Cc2ccccc2)n1 [drawing 2615] = 51 to 75%
17. Cc1c(C(=O)Nc2nnc(-c3ccccn3)[nH]2)oc2ccccc12 [drawing 2465] = 51 to 75%
18. O=C(Nc1nnc(-c2ccccn2)[nH]1)c1ccc(Oc2cccnc2)cc1 [drawing 2550] = 51 to 75%
19. CC(C)(C)c1noc(CCC(=O)Nc2nnc(-c3ccccn3)[nH]2)n1 [drawing 2493] = 51 to 75%
20. COc1ccc(CCC(=O)Nc2nnc(-c3ccccn3)[nH]2)cc1F [drawing 2454] = 51 to 75%
21. O=S(=O)(Oc1cc(C(F)(F)F)cc(C(F)(F)F)c1)N1CCc2ccccc2C1 [drawing 2627] = 51 to 75%
22. O=C(Nc1nnc(-c2ccccn2)[nH]1)C1CC(=O)N(Cc2cccc(C(F)(F)F)c2)C1 (stereo not drawn) [drawing 2547] = 51 to 75%
23. CCOc1cc(C(=O)Oc2c(C)ccc(C)c2C)cc(OCC)c1OCC [drawing 2622] = 51 to 75%
24. O=C(Cn1c(=O)cnc2ccccc21)Nc1nc(-c2ccccn2)cs1 [drawing 2569] = 51 to 75%
25. Cc1nc(-c2ccccn2)nc(O)c1CCC(=O)NCCc1cccs1 [drawing 2595] = 25 to 50%
26. O=C(Nc1nnc(-c2ccccn2)[nH]1)c1ccn(-c2cccc(Cl)c2)n1 [drawing 2559] = 76 to 100%
27. O=C(Nc1nc(-c2ccccn2)cs1)c1ccc2nccnc2c1 [drawing 2570] = 51 to 75%
28. O=C(COCCOc1ccccc1)Nc1nnc(-c2ccccn2)[nH]1 [drawing 2564] = 76 to 100%
29. COc1cn(-c2ccccc2)nc1C(=O)Nc1nnc(-c2ccccn2)[nH]1 [drawing 2557] = 76 to 100%
30. O=C(Nc1nnc(-c2ccccn2)[nH]1)C1CCCN(c2ncccn2)C1 (stereo not drawn) [drawing 2514] = 51 to 75%
31. CN(CC(=O)Nc1nnc(-c2ccccn2)[nH]1)S(=O)(=O)c1ccccc1 [drawing 2558] = 76 to 100%
32. O=c1nc(-c2ccccn2)[nH]c2sc(-c3ccccc3)cc12 [drawing 2588] = 51 to 75%
33. COC(=O)c1cncc(C(=O)Nc2nnc(-c3ccccn3)[nH]2)c1 [drawing 2529] = 51 to 75%
34. O=C(Nc1nc(-c2ccccn2)cs1)c1ccccn1 [drawing 2573] = 76 to 100%
35. COCC(C)Nc1nc(-c2ccccn2)nc2sc(C)c(-c3ccccc3)c12 (stereo not drawn) [drawing 2604] = 51 to 75%
36. CC(C)C1=C(O)C2(CC2c2ccc(-c3ccccc3)cc2)C(C)CC1 (stereo not drawn) [drawing 2635] = 25 to 50%
